- Test system: LOX IMVI melanoma
- protocol_notes: NCI-60 one-dose screen, 48 h
- measurement_conditions: 10 µM unless noted
About 83,000 compounds went through this panel and 20% of them were active in at least one assay; those are over-represented in the sample as a whole. Activity calls are given as the source filed them. Rule for the calls: active = growth percent below 10; inactive = the rest.
Log the outcome using a class from 1.0 = active, 0.0 = inactive

Look over these answered cases.
CS(=O)(=O)c1ccc(-c2nc3ccccn3c2-c2nc3ccc([N+](=O)[O-])cc3[nH]2)cc1    0.0
C#C[C@]1(O)CC[C@H]2[C@@H]3CC=C4c5sc(Nc6ccc(Cl)cn6)nc5CC[C@]4(C)[C@H]3CC[C@@]21C    1.0
Cc1cccc2sc(/N=C(\N)C(Cl)(Cl)Cl)nc12    0.0
O=C(CN1C(=O)/C(=C/c2ccccc2)SC1=S)N1CCOCC1    1.0

Called result for N#Cc1nc(-c2ccccc2)oc1N1CCC(CO)C1 (centres undefined)
0.0

Look up the recorded call for `COc1cccc(COc2ccc(/C=C3/C(=O)Nc4cc(Cl)ccc43)cc2)c1` in this test.
0.0

Hi team, can someone confirm the assay call for CCCCN1C(=O)/C(=c2\sc3n(c2=O)C2C(NN=3)N(CC)C(=O)N2CC)c2cc(Cl)ccc21 (centres undefined) ?
0.0

Dear all, I need the recorded test outcome for COC1CCN(Cc2ccc3c(NNC(=O)c4cnccn4)nc4cc(F)ccc4n23)C1 (centres undefined) , thank you.
1.0

Please let me know the test result on file for `Cc1[nH]nc2ncc(C#Cc3cncc(C(=O)Nc4ccc(CN5CCN(C)CC5)c(C(F)(F)F)c4)c3)cc12` .
1.0

---

- Test system: OVCAR-5 ovarian
- protocol_notes: NCI-60 one-dose screen, 48 h (100 = growth as untreated, 0 = no growth, -100 = all killed)
- measurement_conditions: 10 µM unless noted
Compounds without any hit were thinned out: in the full panel of roughly 83,000, 20% have a hit.
Note to self: use TRUE only for growth readings below 70%; a reading exactly at 70% still gets FALSE.

Illustrative cases are given below, each with its answer.
O=C1Nc2ccc(Cl)cc2/C1=C/c1ccc(OCC(=O)c2ccc(Br)cc2)cc1    FALSE
COc1ccc(C(=O)/C=C/c2ccc(OCc3ccc(C)cc3)c(OC)c2)cc1OC    FALSE
COc1cccc(OC)c1-c1nnn(C)c1C(=S)N1CCN(c2ccc([N+](=O)[O-])cc2Cl)CC1    FALSE
COC(=O)C1CCCN(S(=O)(=O)/N=C2\NC(=O)NC2=C(Cl)Cl)C1 (stereo not given)    FALSE
COc1cc2cc(Oc3ccc(NC(=O)c4cccc(C(F)(F)F)c4)cc3)c(C)nc2cc1OCCN1CCCCC1    FALSE

// switching to the query molecule
Determine if `O=C(O)CCCCCN1C(=O)/C(=C/c2ccc(O)c(O)c2)SC1=S` shows growth strictly lower than 70%.
FALSE

---

// values below are reported growth
- Tested on: SNB-75 CNS
- protocol_notes: NCI-60 one-dose screen, 48 h (100 = growth as untreated, 0 = no growth, -100 = all killed)
- measurement_conditions: 10 µM unless noted
About 83,000 compounds went through this panel and 20% of them were active in at least one assay; those are over-represented in the sample as a whole.
Kindly answer with a numeric value in %, unit omitted.

So for `O=C(NNc1nc2cc(F)ccc2n2c(CN3CC4(COC4)C3)ccc12)c1cnccn1` , the logged growth turned out to be 63.1

---

Collected growth values appear next to each entry.
- Tested on: MOLT-4 leukemia
- protocol_notes: NCI-60 one-dose screen, 48 h (100 = growth as untreated, 0 = no growth, -100 = all killed)
- measurement_conditions: 10 µM unless noted
The panel holds about 83,000 compounds, 20% with a hit somewhere; the sample as a whole holds those more often.
Give the quantity in %, number only.

growth measured on C#Cc1nc(C2=C(C)C(O)CC2)cs1 (stereo not given) = 95.1

---

- System: SN12C renal
- protocol_notes: NCI-60 one-dose screen, 48 h (100 = growth as untreated, 0 = no growth, -100 = all killed)
- measurement_conditions: 10 µM unless noted
The panel holds about 83,000 compounds, 20% with a hit somewhere; the sample as a whole holds those more often.
quantity: growth (%)
Please give a number only; it is taken to be in %.

Entry `O=C(CSc1nccc(=O)[nH]1)Nc1ccc(-c2nc3ccccc3[nH]2)cc1` — recorded growth = 103

Summary for this molecule, `CCOC(=O)c1c(Nc2ccccc2)nn2c(-c3ccco3)c(C#N)cnc12` : growth is 92.9

// sample `N#Cc1c(-c2ccc(Cl)cc2)nc(SCc2ccccc2)nc1N1CCNCC1` , its growth was 54.9

---

- System: MOLT-4 leukemia
- protocol_notes: NCI-60 one-dose screen, 48 h (100 = growth as untreated, 0 = no growth, -100 = all killed)
- measurement_conditions: 10 µM unless noted
Compounds without any hit were thinned out: in the full panel of roughly 83,000, 20% have a hit.
quantity: growth (%)
Give the value in % but do not write % after it.

Take a look at these entries with their results.
CS(=O)(=O)c1ccc(-c2nc3ccccn3c2/C=N/Nc2nc(-c3ccc(Cl)cc3)cs2)cc1    82
Clc1ccc2c(NCCCn3ccnc3)c3oc4ccccc4c3nc2c1    13.3
O=C(NNc1nc2cc(F)ccc2n2c(CN3CC4(COC4)C3)ccc12)c1cnccn1    6.4
Cc1ccc(/C=C/c2nn3c(-c4ccco4)nnc3s2)cc1C    97.8
COc1ccc(/C=N/NC(=O)c2[nH]c3ccc(Br)cc3c2-c2ccccc2)s1    10.4
O=C1[C@H]2Cc3c([nH]c4ccccc34)[C@@H](c3ccc(Br)cc3)N2C(=O)CN1C1CCN(Cc2ccccc2)CC1    12.7
CCCC(=O)NC(c1ccc(N(CC)CC)cc1)c1cc(C)c2cccnc2c1O (stereo not given)    8.44
CC(=O)Oc1ccccc1C(=O)Nc1ccc(C(=O)/C=C/c2cccs2)cc1    104

Consider `CCOC(=O)c1csc(NC(=O)CSc2nc3sc4c(c3c(=O)n2-c2ccc(Cl)cc2)CCCC4)n1` . Its measured growth is 81.1

For record CCCC(=O)NC(c1cccnc1)c1cc(C)c2cccnc2c1O (stereo not given) the listed growth is 18.8

Lab note: `N#Cc1c(-c2ccc(Cl)cc2)nc(SCc2ccc([N+](=O)[O-])cc2)nc1N1CCNCC1` gave growth of -27

growth recorded for this molecule, `O=C(N/N=C/c1ccc([N+](=O)[O-])o1)c1[nH]c2ccc(Br)cc2c1-c1ccccc1` , is 5.69

# molecule `Cc1cccc2sc(/N=C(\N)C(Cl)(Cl)Cl)nc12` ; its growth = 103

The molecule identified as `CN(C)CCCNc1c2ccc(Cl)cc2nc2c1oc1ccc(Cl)cc12` registered its growth at -4.89

Reported growth for `O=C(N/N=C/c1ccc(Br)s1)c1[nH]c2ccc(Br)cc2c1-c1ccccc1` was 14.2

---

- Tested on: HS 578T breast
- protocol_notes: NCI-60 one-dose screen, 48 h
- measurement_conditions: 10 µM unless noted
About 83,000 compounds went through this panel and 20% of them were active in at least one assay; those are over-represented in the sample as a whole. Active and inactive are the calls of the source. The calls were made as follows: active = growth percent below 10; inactive = the rest.
Respond with a class label; see active, inactive

Use these answered entries as a reference point.
O=C(N/N=C/c1ccc([N+](=O)[O-])o1)c1[nH]c2ccc(Br)cc2c1-c1ccccc1    active
Clc1ccc2c(NCCCN3CCOCC3)c3oc4ccc(Cl)cc4c3nc2c1    inactive
Cc1cccc2sc(/N=C(\N)C(Br)Br)nc12    inactive
COc1ccc([C@@H]2c3[nH]c4ccccc4c3CC3C(=O)N(C4CCN(Cc5c(F)cccc5F)CC4)CC(=O)N32)c(OC)c1 (stereo not given in full)    inactive

Attention now shifts to the item below.
Short answer needed: outcome of this test for `Nc1ncc(-c2ccc3ncnc(N4CCc5cc(F)c(Cl)cc54)c3c2)cc1CO` ?
active

---

- Test system: HCT-116 colon
- protocol_notes: NCI-60 one-dose screen, 48 h
- measurement_conditions: 10 µM unless noted
About 83,000 compounds went through this panel and 20% of them were active in at least one assay; those are over-represented in the sample as a whole. Activity calls are given as the source filed them. How the source made its calls: active means growth percent below 10; inactive means the rest.
Valid outcomes are listed here; reply with one: TRUE for active, FALSE for inactive

Below are worked cases with known answers.
O=C(CCN1C(=O)/C(=C/c2ccccc2F)SC1=S)N1CCOCC1    FALSE
COc1cccc(-c2nn(-c3ccccc3)cc2-c2ccnc(N3CCN(C(=O)c4ccccc4)CC3)c2)c1    FALSE
COc1cc2cc(Oc3ccc(NC(=O)c4cccc(C(F)(F)F)c4)cc3)c(C)nc2cc1OCCN1CCCCC1    TRUE

Just curious, what result did `Cc1cc2nc3c4cc(Cl)ccc4n(CC(=S)NCCN(C)C)c3nc2cc1C` get here?
TRUE

Could you kindly confirm the outcome this assay logged for `CS(=O)(=O)c1ccc(-n2cc(/C=C/C(=O)c3ccc(NC(=O)CO[N+](=O)[O-])cc3)c(-c3ccc(Cl)cc3)n2)cc1` ?
FALSE

Check the results log: what was the call for `CN(C)c1ccc(-c2c(NC(C)(C)C)nc3c(OCCc4ccccc4)cccn23)cc1` ?
TRUE

Returns: the outcome recorded for `O=C1Nc2cc(Cl)ccc2/C1=C\c1ccc(OCc2ccc([N+](=O)[O-])cc2)cc1` in this assay.
FALSE

// return assay outcome for `CCOC(=O)c1c(Nc2ccccc2)nn2c(N)c(C#N)c(-c3ccc(F)cc3)nc12`
FALSE

Hi team, can someone confirm the assay call for `CC(=NNc1ncnc2ccccc12)c1ccc(S(C)(=O)=O)cc1` ?
FALSE
